test system: SF-539 CNS; experiment: NCI tumour cell line growth inhibition, 48 h
Please go through the items and note down their TGI.

Lookup: Report TGI from SF-539 CNS testing of O=c1c2sccc2n(CC2COc3ccccc3O2)c(=O)n1O (stereo not given)
Found: > 100 µM

Lookup: Give SF-539 CNS TGI for the following compound: [Cl-].[La+3].[O-]/N=C(\c1ccccc1)c1ccccn1.[O-]/N=C(\c1ccccc1)c1ccccn1.[O-]/N=C(\c1ccccc1)c1ccccn1
Found: > 85.7 µM

Lookup: Please report TGI with SF-539 CNS for item Cc1ccccc1S(=O)(=O)OC1NS(=O)(=O)c2ccccc21 (stereo not given) .
Found: > 100 µM

Lookup: Under SF-539 CNS, report TGI for NS(=O)(=O)c1cc2c(cc1Cl)NC(CCC(=O)O)=NS2(=O)=O
Found: > 100 µM

Lookup: Under SF-539 CNS, report TGI for CSC(=S)N(C)C
Found: > 100 µM

* * *

Kindly state TGI for each of the entries shown.
tested on: NCI-H226 lung; assay: NCI tumour cell line growth inhibition, 48 h
Dear colleague, please return just the value in µM, with no unit written.

Lookup: Using known records, supply TGI for Cc1ccc(S(=O)(=O)N/N=C/C2(c3ccccc3)c3ccccc3-c3ccccc32)cc1
Found: 34.1

Lookup: Supply reported TGI belonging to this compound: CN1CCN(CCCn2c(=O)c3sc4ncccc4c3n3nnc(-c4ccccc4)c23)CC1
Found: 15.3

* * *

system: SK-MEL-5 melanoma; assay: NCI tumour cell line growth inhibition, 48 h
assayReadout: TGI

Lookup: Dear colleague, please send me the reported TGI for CC(C)=Cc1cc(C(=O)Nc2ccc(Cl)c(Cl)c2)nc(N)n1 when you can.
Found: > 100 µM

Lookup: Please give measured TGI of the following entry: Oc1ccc([I+]c2ccccc2)cc1O
Found: > 100 µM

Lookup: Consider the compound N#CC12C(=O)N=C(N)C1(C#N)C(c1ccco1)NC1=C2CCCC1 (stereo not given) and give its recorded TGI.
Found: > 100 µM

Lookup: Using the record for CC(=O)OC1=CC(n2cc(F)c(=O)[nH]c2=O)OC(C)C1=O (stereo not given) , state its measured TGI.
Found: > 100 µM

Lookup: Identify measured TGI associated with Cc1cn(C2CC(O)C(CO)O2)c(=O)[nH]c1=O (stereo not given)
Found: > 5000 µM

Lookup: Identify the reported TGI for the following entry. COC(OC)C(C)CC(=O)N(C)C (stereo not given)
Found: > 100 µM

Lookup: # return recorded TGI for input CC1(C)C2CCC(=O)C1CC2 (stereo not given)
Found: > 100 µM

Lookup: Look up and report measured TGI for this entry: CCOC(=O)c1cn2c(nc1=O)N[C@H]1CCCC[C@@H]12
Found: > 100 µM

Lookup: Look up and state reported TGI for CC1CCC(C(=O)O)(C(Br)C(=O)O)CC1 (stereo not given)
Found: > 100 µM

Lookup: Please look at this compound and report its TGI: COc1cc(NS(C)(=O)=O)ccc1Nc1cc(C)[nH]c2ccc3nccc3c12
Found: > 100 µM

Lookup: Identify the reported TGI for the following entry. [O-][n+]1ccccc1Sc1nc(Sc2cccc[n+]2[O-])nc(Sc2cccc[n+]2[O-])n1
Found: 3.07 µM

Lookup: Dear colleague, please send me the reported TGI for O=C1NCCN1/N=C/c1c(Cl)n(-c2ccccc2)c2ccccc12 when you can.
Found: 29.3 µM

Lookup: Answer with the recorded TGI for the compound listed here: CC1=NN(c2cccc(Cl)c2)C2(C1=C/C=C/c1ccccc1)C(Cl)C(=O)N2c1nc2ccccc2s1 (stereo not given)
Found: > 58.7 µM

Lookup: Provide measured TGI value, entry: COc1cccc(-c2nc(-c3ccc(NC(=O)C(C)C)cc3)[nH]c2-c2ccnc(Br)c2)c1
Found: 3.32 µM

Lookup: Tell me its TGI given CN1CCN(CCCn2c(=O)c3sc4ncccc4c3n3nnc(-c4ccccc4)c23)CC1 as the entry.
Found: 13.8 µM
